System: MOLT-4
ASSAY PROCEDURE: Cytotoxicity against human MOLT4 cells after 72 hrs by MTT assay
Format: functional, cell-based
ASSAY SETUP: MOLT-4, 72 h
Answer each item with its documented IC50.

(Q) Field: IC50 (MOLT-4). Entry: COc1ccc(/C=C/C(=O)c2cc3ccc(OCc4cccc(OC)c4)cc3oc2=O)cc1
(A) > 100 µM

(Q) Missing value: IC50, MOLT-4, entry COc1cc(/C=C/C(=O)c2cc3cc(OCc4ccccc4)ccc3oc2=O)cc(OC)c1OC . Fill in?
(A) 10.3 µM

(Q) Which measured IC50 belongs to COc1cccc(COc2ccc3cc(C(=O)/C=C/c4ccc5c(c4)OCO5)c(=O)oc3c2)c1 , tested on MOLT-4?
(A) > 100 µM

* * *

System: MOLT-4
ASSAY PROCEDURE: Cytotoxicity against human MOLT4 cells after 72 hrs by MTT assay
Format: functional, cell-based
ASSAY SETUP: MOLT-4, 72 h
READOUT: IC50

(Q) Data request, read-out IC50, for COc1cccc(COc2ccc3cc(C(=O)/C=C/c4cc(OC)ccc4OC)c(=O)oc3c2)c1
(A) 13.8 µM

(Q) Give its IC50 value. Item: COc1cccc(COc2ccc3cc(C(=O)/C=C/c4ccc(C)cc4)c(=O)oc3c2)c1
(A) > 50 µM

(Q) Look up IC50 for this compound: COc1cc(/C=C/C(=O)c2cc3ccc(O)cc3oc2=O)cc(OC)c1OC
(A) 3.8 µM

(Q) Look at this compound and give its reported IC50. COc1cc(/C=C/C(=O)c2cc3cc(O)ccc3oc2=O)cc(OC)c1OC
(A) 3.9 µM

(Q) Consider the compound COC(=O)c1ccc(/C=C/C(=O)c2cc3ccc(O)cc3oc2=O)cc1 and give its measured IC50.
(A) 3.7 µM

* * *

ASSAY PROCEDURE: Antioxidant activity assessed as ferric ion reducing ability after 20 mins by FRAP assay
Assay type: functional
What Activity was measured for each of the following?
Reply with just the number (in mM).

(Q) Consider the compound COc1cccc(COc2ccc3cc(C(=O)/C=C/c4ccc(C)cc4)c(=O)oc3c2)c1 and give its measured Activity.
(A) 6.6

(Q) Value lookup for Activity; key = COc1ccc(/C=C/C(=O)c2cc3ccc(OCc4cccc(OC)c4)cc3oc2=O)cc1
(A) 14.3

(Q) Look up Activity for this compound: COc1cc(/C=C/C(=O)c2cc3cc(OCc4ccccc4)ccc3oc2=O)cc(OC)c1OC
(A) 8.1

(Q) What value of measured Activity is listed for COc1cccc(/C=C/C(=O)c2cc3ccc(O)cc3oc2=O)c1OC ?
(A) 25.2

(Q) Could you tell me which Activity is on file for O=c1c(O)c(-c2ccc(O)c(O)c2)oc2cc(O)cc(O)c12 ?
(A) 87.1

(Q) For the compound shown here, COc1cccc(COc2ccc3cc(C(=O)/C=C/c4ccc5c(c4)OCO5)c(=O)oc3c2)c1 , give the reported Activity.
(A) 7.5

(Q) Tell me the measured Activity of O=C(/C=C/c1ccc2c(c1)OCO2)c1cc2cc(OCc3ccccc3)ccc2oc1=O , please.
(A) 12.6

(Q) So what's the measured Activity for this one? COc1cccc(COc2ccc3cc(C(=O)/C=C/c4cccc(OC)c4OC)c(=O)oc3c2)c1
(A) 7.6

(Q) Endpoint output: Activity of COc1cccc(/C=C/C(=O)c2cc3cc(OCc4ccccc4)ccc3oc2=O)c1OC . Value?
(A) 4.4

(Q) Would you mind telling me what Activity value was observed for COc1cccc(COc2ccc3cc(C(=O)/C=C/c4ccccc4)c(=O)oc3c2)c1 ?
(A) 10.4

(Q) # lookup: Activity of COc1cccc(/C=C/C(=O)c2cc3cc(O)ccc3oc2=O)c1OC
(A) 25.7

(Q) Item under review: COc1cc(/C=C/C(=O)c2cc3ccc(O)cc3oc2=O)cc(OC)c1OC . Reported Activity?
(A) 8.7

(Q) Can you share its Activity? I mean this compound: COc1cccc(COc2ccc3cc(C(=O)/C=C/c4ccc(Cl)cc4Cl)c(=O)oc3c2)c1
(A) 7.1

(Q) Look at this compound and give its reported Activity. O=C(/C=C/c1ccc2c(c1)OCO2)c1cc2cc(O)ccc2oc1=O
(A) 15.3

(Q) For the compound shown here, COc1cccc(COc2ccc3cc(C(=O)/C=C/c4cc(OC)ccc4OC)c(=O)oc3c2)c1 , give the reported Activity.
(A) 9.5

(Q) Any idea what Activity was measured for COc1cccc(COc2ccc3cc(C(=O)/C=C/c4c(Cl)cccc4Cl)c(=O)oc3c2)c1 ?
(A) 5.3

(Q) Using the record for COc1cc(/C=C/C(=O)c2cc3cc(O)ccc3oc2=O)cc(OC)c1OC , report its Activity.
(A) 9.6

(Q) Field request: Activity | item: O=C(/C=C/c1ccc2c(c1)OCO2)c1cc2ccc(O)cc2oc1=O
(A) 13.7
